All figures here come from paper PMC12716163.

target: UniProt:P08581
Sequence (P08581 25-1390): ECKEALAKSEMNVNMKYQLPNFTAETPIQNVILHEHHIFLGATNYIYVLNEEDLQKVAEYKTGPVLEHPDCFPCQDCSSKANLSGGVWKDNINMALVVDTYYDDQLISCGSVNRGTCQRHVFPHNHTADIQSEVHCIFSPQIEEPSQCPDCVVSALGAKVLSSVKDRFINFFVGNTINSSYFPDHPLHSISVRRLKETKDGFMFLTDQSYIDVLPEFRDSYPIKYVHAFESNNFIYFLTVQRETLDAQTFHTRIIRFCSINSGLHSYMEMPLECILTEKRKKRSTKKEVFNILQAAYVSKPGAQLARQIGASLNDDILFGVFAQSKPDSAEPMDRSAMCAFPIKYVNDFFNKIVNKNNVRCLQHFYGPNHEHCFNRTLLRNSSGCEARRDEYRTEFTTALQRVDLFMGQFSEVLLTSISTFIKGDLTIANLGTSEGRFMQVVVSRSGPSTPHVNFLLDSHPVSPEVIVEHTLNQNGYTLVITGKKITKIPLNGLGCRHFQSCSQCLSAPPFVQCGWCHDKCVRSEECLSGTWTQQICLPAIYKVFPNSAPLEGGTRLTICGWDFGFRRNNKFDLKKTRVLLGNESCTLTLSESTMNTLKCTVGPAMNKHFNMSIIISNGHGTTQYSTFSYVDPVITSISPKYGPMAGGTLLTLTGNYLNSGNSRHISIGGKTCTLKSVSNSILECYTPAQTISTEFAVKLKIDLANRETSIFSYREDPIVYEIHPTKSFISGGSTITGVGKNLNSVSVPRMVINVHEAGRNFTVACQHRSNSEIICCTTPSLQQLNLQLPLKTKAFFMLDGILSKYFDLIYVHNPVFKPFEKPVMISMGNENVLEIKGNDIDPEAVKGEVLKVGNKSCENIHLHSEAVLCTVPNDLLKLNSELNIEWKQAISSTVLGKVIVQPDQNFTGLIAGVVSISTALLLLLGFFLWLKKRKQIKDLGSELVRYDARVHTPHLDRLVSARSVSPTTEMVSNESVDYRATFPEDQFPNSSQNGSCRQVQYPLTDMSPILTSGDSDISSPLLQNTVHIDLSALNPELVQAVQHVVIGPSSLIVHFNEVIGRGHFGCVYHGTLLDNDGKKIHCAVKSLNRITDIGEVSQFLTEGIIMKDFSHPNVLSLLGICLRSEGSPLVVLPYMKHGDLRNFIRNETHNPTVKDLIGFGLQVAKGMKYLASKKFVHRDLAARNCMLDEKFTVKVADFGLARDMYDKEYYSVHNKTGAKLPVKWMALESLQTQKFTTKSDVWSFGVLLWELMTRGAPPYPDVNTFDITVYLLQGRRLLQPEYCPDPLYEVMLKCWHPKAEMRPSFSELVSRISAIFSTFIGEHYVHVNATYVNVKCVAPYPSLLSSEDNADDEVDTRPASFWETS
pIC50: −log10 of the molar value.
Measurement Type: pIC50

1) COc1cc2c(Oc3ccc(NC(=O)C4(C(=O)Nc5ccc(F)cc5)CC4)cc3)ccnc2cc1O [Cabo-OH]; 7.58
